Assay read-out Ki on 5-hydroxytryptamine receptor 1A (Homo sapiens); records merged from the literature.
endpoint: Ki (nM)

Consider the reported Ki for these molecules:
COc1ccccc1N1CCN(CCCCCCN2C(=O)c3ccccc3S2(=O)=O)CC1 : 91
O=S(=O)(NCC1CCN(CCOc2cccc(F)c2)CC1)c1cccc(Cl)c1 : 283
Cc1cc(C(=O)CCN2CCN(c3ccccc3O)CC2)c(C)s1 : 7.59

a. COc1ccccc1N1CCN(C[C@H]2OCCO[C@H]2c2ccccc2)CC1 (relative stereo)
b. CCN(CCCc1c[nH]c2ccc(F)cc12)[C@@H]1COc2c(F)ccc(C(N)=O)c2C1
Problem: Between a and b , whose recorded Ki is greater? Answer = label.
Result: a

a. COc1ccc2oc(C(=O)NCCC(F)CN3CCN(c4ccccc4OC)CC3)cc2c1 (stereo not given)
b. CCC1(CCCCN2CCN(c3ccc(Cl)cc3)CC2)C(=O)Nc2cc(F)ccc21 (stereo not given)
Problem: // which entry has the larger Ki value, a or b ? Record your answer as the label of the chosen record.
Result: b

P. COc1cccc(OC)c1OCCNC[C@H]1OCCO[C@@H]1c1ccccc1 (relative stereo)
Q. Cc1ccc2c(N3CCN(CCc4ccc5c(c4)NC(=O)CO5)CC3)ccc(F)c2n1
R. COc1cccc(OC)c1OCCNCC1OCCOC1(c1ccccc1)c1ccccc1 (stereo not given)
S. O=C1CC2(C=CN1CCN1CCN(c3ccccc3Cl)CC1)CCCC2
Problem: Rank by Ki (largest to smallest). // ordering of labels required in reply
Result: P, R, S, Q
(P: 97.7 nM, R: 66.1 nM, S: 9.38 nM, Q: 0.251 nM)

a. O=C(NC1CCN(CCOc2ccccc2-c2ccccc2)C1)c1cccc(F)c1F (stereo not given)
b. Cc1ccc2c(OCCN3CCC(Cc4cccc(N5CCN(C)C(=O)C5)c4)CC3)cccc2n1
Problem: Which gives the smaller Ki number: a or b ? Bench note: the answer is the label of the chosen record.
Result: b

A. CN1CCN(c2nccc3cc4c(cc23)N(C(=O)c2cccc3ncccc23)CC4)CC1
B. COc1ccc(N2CCN(CCC(=O)c3ccccc3)CC2)cc1
Problem: Between A and B , whose recorded Ki is greater? Pick one and reply with its label.
Result: B

P. O=S(=O)(c1cccc2ncccc12)N1CCC(CCN2CCN(c3cccc(Cl)c3)CC2)CC1
Q. CC1(c2ccc(F)cc2)NC(=O)N(CC(O)CN2CCc3ccccc3C2)C1=O (stereo not given)
R. Cc1ccc2c(OCCN3CCC(Cc4cc5c(cc4F)OCC(=O)N5)CC3)cc(F)cc2n1
Problem: Rank descending by Ki. When ranking, write the labels in the order the request describes.
Result: Q, P, R
(Q: 1550 nM, P: 54 nM, R: 0.398 nM)

* * *

Across several studies, molecules have been characterized by their Ki on 5-hydroxytryptamine receptor 1A (Homo sapiens, UniProt P08908); a selection follows.
# measurement.target: 5-hydroxytryptamine receptor 1A (Homo sapiens, UniProt P08908)
# Sequence (P08908 whole entry): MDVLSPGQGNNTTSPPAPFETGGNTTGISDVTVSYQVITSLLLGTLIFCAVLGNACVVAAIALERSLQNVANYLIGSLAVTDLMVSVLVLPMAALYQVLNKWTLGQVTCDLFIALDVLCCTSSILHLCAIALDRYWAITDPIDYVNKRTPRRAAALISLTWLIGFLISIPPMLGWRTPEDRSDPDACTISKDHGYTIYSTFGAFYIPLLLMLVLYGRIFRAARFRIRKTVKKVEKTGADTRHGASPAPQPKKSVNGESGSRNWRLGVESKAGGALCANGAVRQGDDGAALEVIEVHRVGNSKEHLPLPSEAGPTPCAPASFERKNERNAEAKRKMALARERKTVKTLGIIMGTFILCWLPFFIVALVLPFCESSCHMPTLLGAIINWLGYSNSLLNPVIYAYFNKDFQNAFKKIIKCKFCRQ
endpoint: Ki (nM)

Use the examples below as a reference point.
Cc1ccccc1OCc1nc(N)nc(N2CCN(C)CC2)n1 : 14200
CCOc1ccccc1N1CCN(CCCCCn2cnc3ccccc3c2=O)CC1 : 1.04
Cc1sc2ncn(CCCCCN3CCN(Cc4ccccc4)CC3)c(=O)c2c1C : 211
CCOC(=O)C1CCN(CC2COc3ccc4[nH]c(C(=O)OC)cc4c3O2)CC1 (stereo not given) : 1.2
O=C1c2ccccc2S(=O)(=O)N1CCCCCN1CCN(c2cccc(Cl)c2Cl)CC1 : 29

a. COc1cccc(OC)c1SCCNCCOc1ccccc1OCc1ccccc1
b. CN1CCC(c2c[nH]c3ccc(NC(=O)c4ccncc4)nc23)CC1
c. COc1ccccc1OCCNCCOc1ccccc1OCc1ccccc1
d. Cc1ccccc1C1CN(CCCc2cn(CCCN3CCN(c4ccccc4O)CC3)nn2)CCc2cc(O)c(O)cc21 (racemic)
Problem: List from greatest to least Ki. Please respond with the labels ordered as the question requires.
Result: d, b, a, c
(d: 98 nM, b: 40 nM, a: 15.8 nM, c: 2.51 nM)
